# Tested on: PPARg homodimer (NR concentration 180 nM)
# Assay info: PBM binding z-score (relative to random genomic background probes); higher = stronger binding; sequences stand for … in GC…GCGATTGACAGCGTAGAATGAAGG
Response key: condition met means PBM binding z-score >= 1; condition not met means PBM binding z-score < 1.

{"Chain": "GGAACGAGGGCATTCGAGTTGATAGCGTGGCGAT", "System under test": "PPARg homodimer (NR concentration 180 nM)", "Category label": "condition not met"}
{"Chain": "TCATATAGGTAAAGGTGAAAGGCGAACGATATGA", "System under test": "PPARg homodimer (NR concentration 180 nM)", "Category label": "condition met"}
{"Chain": "GCTGCTAGGCCAGGTTGGTCAGCTAACGGGTACG", "System under test": "PPARg homodimer (NR concentration 180 nM)", "Category label": "condition not met"}
{"Chain": "CATACTGGGCCAAAAAGGTCATTGATGCCGATAA", "System under test": "PPARg homodimer (NR concentration 180 nM)", "Category label": "condition met"}
{"Chain": "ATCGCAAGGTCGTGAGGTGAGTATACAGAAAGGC", "System under test": "PPARg homodimer (NR concentration 180 nM)", "Category label": "condition not met"}
{"Chain": "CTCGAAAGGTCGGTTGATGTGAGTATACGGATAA", "System under test": "PPARg homodimer (NR concentration 180 nM)", "Category label": "condition met"}
{"Chain": "TCTTGTAGATCAGCAGGTTAAGGAAGCTGGCCAA", "System under test": "PPARg homodimer (NR concentration 180 nM)", "Category label": "condition not met"}
{"Chain": "TCTTGTAGATCAACAGGTGGTTAAGAAAGATCGA", "System under test": "PPARg homodimer (NR concentration 180 nM)", "Category label": "condition not met"}
{"Chain": "AGAATGCGGTTATTAAGATCAGGGAATTGCGGTC", "System under test": "PPARg homodimer (NR concentration 180 nM)", "Category label": "condition not met"}
{"Chain": "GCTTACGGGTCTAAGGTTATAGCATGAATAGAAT", "System under test": "PPARg homodimer (NR concentration 180 nM)", "Category label": "condition not met"}
{"Chain": "CAAACTAGGTTAAAGGTCAAAGTCGAGCCAACCA", "System under test": "PPARg homodimer (NR concentration 180 nM)", "Category label": "condition met"}
{"Chain": "CCTACTGGGCCAGGAAAGGTCATTGATTCAGTGA", "System under test": "PPARg homodimer (NR concentration 180 nM)", "Category label": "condition met"}
{"Chain": "CCCATTAGTTGACCATAAGGGCAACCGAAGCTCG", "System under test": "PPARg homodimer (NR concentration 180 nM)", "Category label": "condition met"}
{"Chain": "ATATGAAGGTTACATCCGGGTCATTCAGGCTATG", "System under test": "PPARg homodimer (NR concentration 180 nM)", "Category label": "condition met"}
{"Chain": "TCTCGGAGGACACGGAAGGTCAGAGCTCGACATC", "System under test": "PPARg homodimer (NR concentration 180 nM)", "Category label": "condition met"}
{"Chain": "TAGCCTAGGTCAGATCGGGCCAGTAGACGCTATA", "System under test": "PPARg homodimer (NR concentration 180 nM)", "Category label": "condition not met"}
{"Chain": "TCGAGTAGCTTACCAATGGGGCATTCAGCTTTCT", "System under test": "PPARg homodimer (NR concentration 180 nM)", "Category label": "condition not met"}
{"Chain": "TCTTGTAGATTAACAGGAGGTTAAGAAAGATCGA", "System under test": "PPARg homodimer (NR concentration 180 nM)", "Category label": "condition not met"}
{"Chain": "CTCGAAAGGTCGTGCTCAGGTGAGTATACCAAAC", "System under test": "PPARg homodimer (NR concentration 180 nM)", "Category label": "condition met"}
{"Chain": "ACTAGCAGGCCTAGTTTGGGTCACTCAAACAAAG", "System under test": "PPARg homodimer (NR concentration 180 nM)", "Category label": "condition not met"}
{"Chain": "ACTAGCAGGTCAAGTTTGGGTCACTCAAACAAAG", "System under test": "PPARg homodimer (NR concentration 180 nM)", "Category label": "condition met"}
{"Chain": "CCGACTGGGGCAGGGTTACCATAACGCACAGCCA", "System under test": "PPARg homodimer (NR concentration 180 nM)", "Category label": "condition not met"}
{"Chain": "TAGCCTAGGTCGTGCGGGCCAGTATAGTGTCGGC", "System under test": "PPARg homodimer (NR concentration 180 nM)", "Category label": "condition not met"}
{"Chain": "GCGACTGGGGCATCAGCAGTTTACCATAACTTAA", "System under test": "PPARg homodimer (NR concentration 180 nM)", "Category label": "condition not met"}
{"Chain": "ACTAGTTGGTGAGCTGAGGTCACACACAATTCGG", "System under test": "PPARg homodimer (NR concentration 180 nM)", "Category label": "condition met"}
{"Chain": "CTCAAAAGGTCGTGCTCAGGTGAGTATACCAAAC", "System under test": "PPARg homodimer (NR concentration 180 nM)", "Category label": "condition met"}
{"Chain": "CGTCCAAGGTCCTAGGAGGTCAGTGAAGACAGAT", "System under test": "PPARg homodimer (NR concentration 180 nM)", "Category label": "condition met"}
{"Chain": "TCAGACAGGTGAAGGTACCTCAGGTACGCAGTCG", "System under test": "PPARg homodimer (NR concentration 180 nM)", "Category label": "condition not met"}
{"Chain": "CCTCGGAGCACAGAAGGTCAGAGCTGTCCGCTTT", "System under test": "PPARg homodimer (NR concentration 180 nM)", "Category label": "condition met"}
{"Chain": "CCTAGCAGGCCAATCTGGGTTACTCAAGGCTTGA", "System under test": "PPARg homodimer (NR concentration 180 nM)", "Category label": "condition not met"}
{"Chain": "CCTAGCGGGCCAATCTGGGTCACTCAAGGCTTGA", "System under test": "PPARg homodimer (NR concentration 180 nM)", "Category label": "condition not met"}
{"Chain": "TCTATTAGTTGATTAGGCCAACCGAAACAGCGGA", "System under test": "PPARg homodimer (NR concentration 180 nM)", "Category label": "condition met"}
{"Chain": "CCTACTGGGCCGTCAGGTCATTGATATCAACGTT", "System under test": "PPARg homodimer (NR concentration 180 nM)", "Category label": "condition not met"}
{"Chain": "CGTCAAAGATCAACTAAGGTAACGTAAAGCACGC", "System under test": "PPARg homodimer (NR concentration 180 nM)", "Category label": "condition not met"}

---

# Tested on: LXRb homodimer (NR concentration 270 nM)
# Assay info: PBM binding z-score (relative to random genomic background probes); higher = stronger binding; sequences stand for … in GC…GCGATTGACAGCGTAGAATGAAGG
Measured attribute: PBM binding z-score

{"Chain": "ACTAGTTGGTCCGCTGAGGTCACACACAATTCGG", "Reported measurement": 0.456}
{"Chain": "ACTATTAGTTGAGACGAGGGCAAACGATAGGTTG", "Reported measurement": 0.32}
{"Chain": "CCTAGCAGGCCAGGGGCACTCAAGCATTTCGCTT", "Reported measurement": -1.19}
{"Chain": "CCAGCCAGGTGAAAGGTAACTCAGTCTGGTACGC", "Reported measurement": -1.15}
{"Chain": "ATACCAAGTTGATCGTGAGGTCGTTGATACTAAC", "Reported measurement": 0.171}
{"Chain": "GCTTGTAGCTCAAGGTTAAGAAAGACTAAGCTAA", "Reported measurement": -0.751}
{"Chain": "CCTCGAAGGACAACAGGAGGTCAGAGCTGCCAGA", "Reported measurement": -0.405}
{"Chain": "ACTAGTTGATCAGCTGAGGTCACACACAATTCGG", "Reported measurement": 0.605}
{"Chain": "CAAACTAGGTCAAGATGTCAAAGTCCGCTTCCCG", "Reported measurement": 0.306}
{"Chain": "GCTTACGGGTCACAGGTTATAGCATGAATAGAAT", "Reported measurement": 0.0394}
{"Chain": "CAAACTTGGTCACCGGAAGGTCAAAGTCCGCATG", "Reported measurement": 0.75}
{"Chain": "ATCGATAGGTCGACGAGGTGAGTATACACCGTTT", "Reported measurement": 0.0439}
{"Chain": "ACTATTAGTTGAGTCGAGGGCAACCGATAGGTTG", "Reported measurement": 0.349}
{"Chain": "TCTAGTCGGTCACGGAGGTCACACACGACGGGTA", "Reported measurement": 0.882}
{"Chain": "ATCTCTAGGTAAAGATAGTTCAGTGAGTGCAAAT", "Reported measurement": 0.569}
{"Chain": "CAAACTAAGTCACCGGAAGGTCAAAGTCCGCATG", "Reported measurement": 1.12}
{"Chain": "CATACGGGGTCAGCTAGGCCAGAGTAGGGACGGC", "Reported measurement": 1.12}
{"Chain": "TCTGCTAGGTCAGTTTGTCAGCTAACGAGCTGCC", "Reported measurement": 0.977}
{"Chain": "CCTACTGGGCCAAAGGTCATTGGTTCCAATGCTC", "Reported measurement": 0.631}
{"Chain": "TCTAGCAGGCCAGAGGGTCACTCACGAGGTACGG", "Reported measurement": -1.2}
{"Chain": "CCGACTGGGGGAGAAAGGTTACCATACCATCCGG", "Reported measurement": 4.09}
{"Chain": "ATATGTAGGTTATGGGTCATTCAGGTTGGTTCGC", "Reported measurement": 1.22}
{"Chain": "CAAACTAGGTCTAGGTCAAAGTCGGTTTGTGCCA", "Reported measurement": 0.0723}
{"Chain": "GGAACGAGGGCAAAGTTGATCGCATCTGTCGACG", "Reported measurement": -0.311}
{"Chain": "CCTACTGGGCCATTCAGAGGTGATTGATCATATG", "Reported measurement": -0.593}
{"Chain": "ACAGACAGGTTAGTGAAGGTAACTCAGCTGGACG", "Reported measurement": -0.3}
{"Chain": "CCTGCTAGGTCATGGTCAGTTAATCTACAGTATG", "Reported measurement": -0.163}
{"Chain": "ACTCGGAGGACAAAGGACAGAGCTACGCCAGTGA", "Reported measurement": -0.449}
{"Chain": "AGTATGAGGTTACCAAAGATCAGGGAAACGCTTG", "Reported measurement": 0.134}

These measurements were taken from the supplement of paper PMC6555819.
